assay: chemical genetic growth profiling, strain panel (AID 1159580);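 note: tested at 20 µM; growth read once vehicle control cultures reached saturation at 30 °C; 1 = growth at the plate median or of vehicle wells; lower values mean less growth of the strain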; details: S. cerevisiae deletion strains, growth OD, locus YLR113W, strain HOG1, stronger effect = lower value
In all, about 5,500 compounds went through this assay and about 2,000 (36%) were called active. About 18% were inconclusive and are not listed. Some of the results follow.
Field 'label' (enum: yes (1) / no (0)). Set to yes (1) when normalized growth is strictly under 1; else no (0).

# TODO verify normalized growth < 1 strictly for this compound: `O=c1c(Sc2ccc(Cl)cc2)c(Sc2ccc(Cl)cc2)c1=O`
yes (1)

// query: `COc1cc2c(cc1OC)Cc1cc(OC)c(OC)cc1Cc1cc(OC)c(OC)cc1C2`
no (0)

// query: `Cc1cc(C(=O)NNc2ccc(F)cc2F)no1`
yes (1)

// query: `Cc1nnsc1C(=O)NNc1c(Cl)cccc1Cl`
yes (1)

// query: `Cc1ccc(-c2csc(-c3cccnc3)n2)c(C)c1`
yes (1)

// query: `Cc1ccc2nc(-c3ccc(Cl)cc3)cn2c1`
yes (1)

// query: `Oc1cc(Cl)ccc1Oc1ccc(Cl)cc1Cl`
yes (1)

// query: `CN1CCC(=C2c3ccccc3C=Cc3ccccc32)CC1`
yes (1)

// query: `Cc1nn(Cc2cccc(C(=O)Nc3ccc(Cl)cc3)c2)c(C)c1Br`
yes (1)

// query: `CNCCc1ccccn1`
no (0)

// query: `O=C(NNc1ccccc1F)c1ccno1`
yes (1)

// query: `S=C(Nc1ccc(Cl)cc1Cl)N(c1cccc(Cl)c1)c1nc2ccccc2s1`
yes (1)

// query: `CC(=O)N[C@@H](CC(C)C)C(=O)O`
no (0)

// query: `COc1ccc(CN2CSC(=S)N(Cc3ccc(OC)cc3)C2)cc1`
yes (1)

// query: `CCOC(=O)C(C)(C)Oc1ccc(Cl)cc1`
yes (1)
